Where do the numbers come from? From the Immune Epitope Database (IEDB).

target: HLA-A*33:01; test: IEDB peptide-MHC binding, purified MHC/competitive/radioactivity; filed as Kd, often an IC50 or EC50 that approximates it; bounds were set here for any values at or beyond the usual limits of such assays; details: source organism: Vaccinia virus WR
pKd: −log10 of the molar value.
For each record, write down the corresponding pKd.

Query: Looking for the measured pKd of `MVSVSDFRDY` , can you help?
Response: ≤ 4.15

Query: Looking for the measured pKd of `AITDNGPMPY` , can you help?
Response: ≤ 4.30

Query: Looking for the measured pKd of `ASGQRCHFIK` , can you help?
Response: ≤ 4.20

Query: Looking for the measured pKd of `KLVYIFEPEK` , can you help?
Response: ≤ 4.15

Query: Looking for the measured pKd of `VTNLISETLK` , can you help?
Response: ≤ 4.47
